Test system: ACHN cell line
Experiment: drug screen of the SelleckChem kinase inhibitor library with and without 5 uM SU-329, Cell-Titer Glo after 5 days
Assay type: cell-based
Conditions: kinase inhibitor at 200 nM with and without 5 uM SU329; ACHN cell line; 5 days; Cell-Titer Glo
Criterion: log2fc meeting or surpassing 0.2. Met: true. Not met: false.

Check out these entries, answers already filled in.
compound | group
Oc1ccc(-c2nc(-c3ccc(F)cc3)c(-c3ccncc3)[nH]2)cc1 [SB202190 (FHPI)] | false
C=CC(=O)N1CCC[C@@H](n2nc(-c3ccc(Oc4ccccc4)cc3)c3c(N)ncnc32)C1 [Ibrutinib (PCI-32765)] | true
O=C1NCCc2[nH]c(-c3ccncc3)cc21 [PHA-767491] | false
CCC[C@H](NC(=O)/C(C#N)=C/c1cccc(Br)n1)c1ccccc1 [Degrasyn (WP1130)] | false
C[C@H]1[C@H](C)CC[C@]2(C(=O)O)CC[C@]3(C)C(=CC[C@@H]4[C@@]5(C)C[C@@H](O)[C@H](O)[C@@](C)(CO)[C@@H]5CC[C@]43C)[C@H]12 [Asiatic Acid] | false
COc1cc(N2CCC(N(C)C)CC2)ccc1Nc1ncc(Cl)c(Nc2ccccc2P(C)(C)=O)n1 [ALK-IN-1] | false

Lookup: Could you please find out whether O=C1NC(=O)C(c2ccccc2[N+](=O)[O-])=C1Nc1ccc(O)c(Cl)c1 [SB415286] has log2fc that meets 0.2 or exceeds it?
Found: true

Lookup: Could you do the same for N#Cc1c(NC(=O)c2cccc3ccccc23)sc2c1CCCC2 [JNK Inhibitor IX] , please?
Found: false

Lookup: Now this one: O=c1ncn2nc(Sc3ccc(F)cc3F)ccc2c1-c1c(Cl)cccc1Cl [VX-745]
Found: false

Lookup: // query: C=CC(=O)Nc1cccc(Oc2nc(Nc3ccc(N4CCN(C)CC4)cc3)ncc2Cl)c1 [WZ3146, reference compound]
Found: false

Lookup: CCN(CC)CCCCNc1ncc2cc(-c3cc(OC)cc(OC)c3)c(NC(=O)NC(C)(C)C)nc2n1 [PD173074] , same question.
Found: false

Lookup: Consider next the compound COc1cc2c(Oc3ccc4[nH]c(C)cc4c3F)ncnc2cc1OCCCN1CCCC1 [Cediranib (AZD2171)] in the same way.
Found: false

Lookup: Same again, this time with COc1cc2ncnc(Nc3ccc(O)c(Br)c3)c2cc1OC [WHI-P154]
Found: true

Lookup: O=C(c1ccc(/C=C/c2n[nH]c3ccccc23)cc1)N1CCNCC1 [KW-2449] ?
Found: false

Lookup: Can you handle CC(C)(C)c1cc(NC(=O)Nc2ccc(-c3cn4c(n3)sc3cc(OCCN5CCOCC5)ccc34)cc2)no1 [Quizartinib (AC220)] next?
Found: true

Lookup: Try Cc1cnc(-c2cnc(NCCNc3ccc(C#N)cn3)nc2-c2ccc(Cl)cc2Cl)[nH]1 [CHIR-99021 (CT99021)] next.
Found: true
